tested on: VDR homodimer (NR concentration 270 nM); assay: PBM binding z-score (relative to random genomic background probes); higher = stronger binding; sequences stand for … in GC…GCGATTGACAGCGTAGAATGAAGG
property: PBM binding z-score
Give your answer as a number; write no unit.

These solved cases illustrate the format of a correct answer.
GCGACTGGGGCAAACCAGGTTACCATAAGGTTGG ... -0.202
ATATGTAGGTTAGCTGGGGACATTCAGACTAGGC ... 1.3
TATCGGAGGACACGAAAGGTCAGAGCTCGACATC ... 1.67
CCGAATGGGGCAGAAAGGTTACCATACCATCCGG ... -0.0198
CCTGCTAGGTCATGCTCAGCTAATCTACAGTATG ... 0.178
ATAACGAGGGCAATGAGTTGATAGCACGGGTGGC ... 3.01

Give the measured PBM binding z-score of "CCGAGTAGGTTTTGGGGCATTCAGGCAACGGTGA" .
0.218

Give the measured PBM binding z-score of "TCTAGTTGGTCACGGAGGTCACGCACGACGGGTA" .
3.06

Give the measured PBM binding z-score of "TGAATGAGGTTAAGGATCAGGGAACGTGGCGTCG" .
0.15

Give the measured PBM binding z-score of "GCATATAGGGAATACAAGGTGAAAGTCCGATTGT" .
-0.263

Give the measured PBM binding z-score of "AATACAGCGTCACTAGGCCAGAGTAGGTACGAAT" .
-0.308

* * *

system: PPARg:RXRa 30nM:10nM, anti-RXR (NR concentration 30 nM, RXRa partner concentration 10 nM); test: PBM binding z-score (relative to random genomic background probes); higher = stronger binding; sequences stand for … in GC…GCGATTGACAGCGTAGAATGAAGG
Quick reference for PBM binding z-score among some sequences
Give your answer as a number; write no unit.

These solved cases illustrate the format of a correct answer.
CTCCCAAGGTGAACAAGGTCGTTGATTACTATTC ... 0.0592
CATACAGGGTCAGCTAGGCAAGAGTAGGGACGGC ... 0.458
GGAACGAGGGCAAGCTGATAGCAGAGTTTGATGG ... -0.285
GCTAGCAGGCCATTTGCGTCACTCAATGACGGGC ... -0.911

Okay, next one:
Recorded PBM binding z-score for "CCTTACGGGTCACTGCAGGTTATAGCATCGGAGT" with PPARg:RXRa 30nM:10nM, anti-RXR (NR concentration 30 nM, RXRa partner concentration 10 nM), please?
1.16

* * *

tested on: PPARg:RXRa 270nM:90nM, anti-RXR (NR concentration 270 nM, RXRa partner concentration 90 nM); assay: PBM binding z-score (relative to random genomic background probes); higher = stronger binding; sequences stand for … in GC…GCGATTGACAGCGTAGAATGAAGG
The label depends only on PBM binding z-score: y if it is at least 2, n if it is smaller.

The examples below pair each entry with its known result.
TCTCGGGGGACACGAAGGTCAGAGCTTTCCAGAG ... y
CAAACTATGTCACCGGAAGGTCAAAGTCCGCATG ... y
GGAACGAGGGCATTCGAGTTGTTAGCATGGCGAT ... n

Form field: PBM binding z-score at least 2? Entry: "AGACAAAGTTCATCTAGGTAACGTAAGATATGCT"
y

Form field: PBM binding z-score at least 2? Entry: "TCGACTAGGTTAGTCGGGGCATTCAGCCAACATA"
n

Form field: PBM binding z-score at least 2? Entry: "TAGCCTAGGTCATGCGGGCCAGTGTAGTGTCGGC"
y

Form field: PBM binding z-score at least 2? Entry: "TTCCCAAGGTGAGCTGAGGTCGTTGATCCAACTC"
n

Form field: PBM binding z-score at least 2? Entry: "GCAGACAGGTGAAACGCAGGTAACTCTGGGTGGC"
n

Form field: PBM binding z-score at least 2? Entry: "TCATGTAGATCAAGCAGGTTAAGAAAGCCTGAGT"
n

Form field: PBM binding z-score at least 2? Entry: "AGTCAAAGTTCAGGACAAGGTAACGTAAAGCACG"
y

Form field: PBM binding z-score at least 2? Entry: "ATCTCTAGGTAAAGTTCCGTGAAAGATCGATAGA"
n

Form field: PBM binding z-score at least 2? Entry: "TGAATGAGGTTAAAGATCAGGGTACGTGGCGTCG"
y

Form field: PBM binding z-score at least 2? Entry: "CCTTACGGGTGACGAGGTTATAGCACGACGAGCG"
n

Form field: PBM binding z-score at least 2? Entry: "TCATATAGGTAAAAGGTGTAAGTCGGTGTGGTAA"
y

Form field: PBM binding z-score at least 2? Entry: "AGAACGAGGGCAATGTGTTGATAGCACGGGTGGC"
n

Form field: PBM binding z-score at least 2? Entry: "TCTAGTTGGTCAAAGGTCACACTCTCGAAATGCG"
y

Form field: PBM binding z-score at least 2? Entry: "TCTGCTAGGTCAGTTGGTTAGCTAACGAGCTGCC"
n

Form field: PBM binding z-score at least 2? Entry: "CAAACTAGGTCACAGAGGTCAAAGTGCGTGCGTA"
y

Form field: PBM binding z-score at least 2? Entry: "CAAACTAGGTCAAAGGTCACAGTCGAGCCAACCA"
y

Form field: PBM binding z-score at least 2? Entry: "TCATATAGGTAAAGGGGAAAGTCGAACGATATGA"
y

Form field: PBM binding z-score at least 2? Entry: "CCTTACGGGTCAAGGTTAGAGCACGGGTGGTACG"
y

Form field: PBM binding z-score at least 2? Entry: "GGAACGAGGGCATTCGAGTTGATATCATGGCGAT"
n
